system: CP315; assay: qHTS profiling for inhibitors of Plasmodium falciparum proliferation (AID 504749); further: nearly all actives have a fitted effect of over 60% in size; conditions: P. falciparum in erythrocytes, SYBR Green DNA, 72 h; series mostly up to 28.7 µM
Inconclusive results are not listed. Activity calls are given as the source filed them. The call rests on the fitted dose curve; in most records, active means well fitted inhibition curve with a large enough effect; inconclusive means small, poorly fitted or top-dose-only effect; inactive means flat fitted curve, though single readings scatter.
Entry note: the call must match one of active, inactive

- MOLECULE: "O=C(Nc1ccc(O)cc1)c1ccccc1O"
  LABEL VALUE: "inactive"
- MOLECULE: "CC1=CCC2CC1C2(C)C (stereo not given)"
  LABEL VALUE: "inactive"
- MOLECULE: "C=CCN1CCCC1CNC(=O)c1cc(S(N)(=O)=O)cc(OC)c1OC (stereo not given)"
  LABEL VALUE: "inactive"
- MOLECULE: "F[Si-2](F)(F)(F)(F)F"
  LABEL VALUE: "inactive"
- MOLECULE: "Cc1cccc(C)c1NC(=O)C1CCCCN1C (stereo not given)"
  LABEL VALUE: "inactive"

Exercise: What call does the record list for CN(C)CCCSc1ccccc1NC(=O)/C=C/c1ccccc1 ?
Solution: inactive

Exercise: What call does the record list for ClC(Cl)Cl ?
Solution: inactive

Exercise: What call does the record list for FC(F)OC(Cl)C(F)(F)F (stereo not given) ?
Solution: inactive

Exercise: What call does the record list for O=C(NCCNCC(O)COc1ccc(O)cc1)N1CCOCC1 (stereo not given) ?
Solution: inactive

Exercise: What call does the record list for Cc1c(Cl)cccc1Nc1ncccc1C(=O)O ?
Solution: inactive

Exercise: What call does the record list for CCC(C)[C@@H](N)C(=O)O (stereo not given in full) ?
Solution: inactive

Exercise: What call does the record list for O=C(NNCNNC(=O)c1ccncc1)c1ccncc1 ?
Solution: inactive

Exercise: What call does the record list for CCCCCCCCCCCC(=O)N(CCO)CCO ?
Solution: inactive

Exercise: What call does the record list for NC(=O)CC[C@@H]1NC(=O)[C@H](Cc2ccccc2)NC(=O)[C@H](Cc2ccc(O)cc2)NC(=O)[C@@H](N)CSSC[C@@H](C(=O)N2CCC[C@H]2C(=O)N[C@@H](CCCN=C(N)N)C(=O)NCC(N)=O)NC(=O)[C@H](CC(N)=O)NC1=O ?
Solution: inactive

Exercise: What call does the record list for COc1ccc(C(=O)c2ccc(C)cc2)c(O)c1 ?
Solution: inactive

Exercise: What call does the record list for NC(=O)[C@H]1O[C@@H](O)[C@H](O)[C@@H](O)[C@@H]1O ?
Solution: inactive

Exercise: What call does the record list for O=C(O)CC/C=C\CC[C@@H]1[C@@H](N2CCCCC2)[C@@H](O)C[C@@H]1OCc1ccc(-c2ccccc2)cc1 ?
Solution: inactive

Exercise: What call does the record list for O=S(=O)(O)CCCS(=O)(=O)O ?
Solution: inactive

Exercise: What call does the record list for CC1=CC(=O)NS(=O)(=O)O1 ?
Solution: inactive

Exercise: What call does the record list for C[C@]12CC[C@@H]3c4ccc(OC(=O)c5ccccc5)cc4CC[C@H]3[C@@H]1CC[C@@H]2O ?
Solution: inactive

----------
System: CP329
Test: qHTS profiling for inhibitors of Plasmodium falciparum proliferation (AID 504749); further: nearly all actives have a fitted effect of over 60% in size; further: potency means the concentration at half of the fitted maximal effect
Settings: P. falciparum in erythrocytes, SYBR Green DNA, 72 h; series mostly up to 28.7 µM
Method: NIH National Institute of Allergy and Infectious Diseases [NIAID] NIH Chemical Genomics Center [NCGC] […] Because mature erythrocytes lack DNA, only Plasmodium-derived DNA is detected. NCGC Assay Protocol Summary: The SYBR Green viability assay was adapted from a method described previously (Plouffe et al., 2008). […] The following morning, fluorescence intensity at 485(14) nm excitation and 535(25) nm emission wavelengths was measured on an EnVision (Perkin Elmer) plate reader. […]
Results filed as inconclusive are left out. The source made the active and inactive calls. Calls come from the whole dose curve; as a rule, active = well fitted inhibition curve with a large enough effect; inconclusive = small, poorly fitted or top-dose-only effect; inactive = flat fitted curve, though single readings scatter.
MEASURED METRIC: Potency

// solved cases for Potency follow
- COMPOUND: "N=C(N)c1ccc(/C=C/c2ccc(C(=N)N)cc2O)cc1"
  RESULT: "2.13 µM (active)"
- COMPOUND: "Cc1ccc(C(C)(C)c2ccc(C)cc2)cc1"
  RESULT: "inactive"
- COMPOUND: "O=P(O)(O)OC[C@H]1O[C@](O)(COP(=O)(O)O)[C@@H](O)[C@@H]1O"
  RESULT: "inactive"
- COMPOUND: "CC(C)[C@H](N)C(=O)OCC(CO)OCn1cnc2c(=O)[nH]c(N)nc21 (some centres undefined)"
  RESULT: "inactive"
- COMPOUND: "COc1cc2c(cc1OC)[C@@H](Cc1cc(OC)c(OC)c(OC)c1)[N+](C)(CCCOC(=O)CC/C=C/CCC(=O)OCCC[N+]1(C)CCc3cc(OC)c(OC)cc3[C@H]1Cc1cc(OC)c(OC)c(OC)c1)CC2 (some centres undefined)"
  RESULT: "inactive"

NCCO/C=C/[C@H](N)C(=O)O yielded Potency of inactive

Cc1cc(-c2ccc(N=Nc3c(S(=O)(=O)O)cc4cc(S(=O)(=O)O)cc(N)c4c3O)c(C)c2)ccc1N=Nc1c(S(=O)(=O)O)cc2cc(S(=O)(=O)O)cc(N)c2c1O yielded Potency of inactive

CC12CCC(C1)C(C)(C)C2=O (centres undefined) yielded Potency of inactive

O=C(O)/C=C/C(=O)Nc1ccc(S(=O)(=O)Nc2nccs2)cc1 yielded Potency of inactive
